Data provenance is patent US11214563B2.

study.target: human GluN1/GluN2B NMDA receptors (Homo sapiens (Human), UniProt Q13224)
Sequence (Q13224 27-1484, other chains not shown): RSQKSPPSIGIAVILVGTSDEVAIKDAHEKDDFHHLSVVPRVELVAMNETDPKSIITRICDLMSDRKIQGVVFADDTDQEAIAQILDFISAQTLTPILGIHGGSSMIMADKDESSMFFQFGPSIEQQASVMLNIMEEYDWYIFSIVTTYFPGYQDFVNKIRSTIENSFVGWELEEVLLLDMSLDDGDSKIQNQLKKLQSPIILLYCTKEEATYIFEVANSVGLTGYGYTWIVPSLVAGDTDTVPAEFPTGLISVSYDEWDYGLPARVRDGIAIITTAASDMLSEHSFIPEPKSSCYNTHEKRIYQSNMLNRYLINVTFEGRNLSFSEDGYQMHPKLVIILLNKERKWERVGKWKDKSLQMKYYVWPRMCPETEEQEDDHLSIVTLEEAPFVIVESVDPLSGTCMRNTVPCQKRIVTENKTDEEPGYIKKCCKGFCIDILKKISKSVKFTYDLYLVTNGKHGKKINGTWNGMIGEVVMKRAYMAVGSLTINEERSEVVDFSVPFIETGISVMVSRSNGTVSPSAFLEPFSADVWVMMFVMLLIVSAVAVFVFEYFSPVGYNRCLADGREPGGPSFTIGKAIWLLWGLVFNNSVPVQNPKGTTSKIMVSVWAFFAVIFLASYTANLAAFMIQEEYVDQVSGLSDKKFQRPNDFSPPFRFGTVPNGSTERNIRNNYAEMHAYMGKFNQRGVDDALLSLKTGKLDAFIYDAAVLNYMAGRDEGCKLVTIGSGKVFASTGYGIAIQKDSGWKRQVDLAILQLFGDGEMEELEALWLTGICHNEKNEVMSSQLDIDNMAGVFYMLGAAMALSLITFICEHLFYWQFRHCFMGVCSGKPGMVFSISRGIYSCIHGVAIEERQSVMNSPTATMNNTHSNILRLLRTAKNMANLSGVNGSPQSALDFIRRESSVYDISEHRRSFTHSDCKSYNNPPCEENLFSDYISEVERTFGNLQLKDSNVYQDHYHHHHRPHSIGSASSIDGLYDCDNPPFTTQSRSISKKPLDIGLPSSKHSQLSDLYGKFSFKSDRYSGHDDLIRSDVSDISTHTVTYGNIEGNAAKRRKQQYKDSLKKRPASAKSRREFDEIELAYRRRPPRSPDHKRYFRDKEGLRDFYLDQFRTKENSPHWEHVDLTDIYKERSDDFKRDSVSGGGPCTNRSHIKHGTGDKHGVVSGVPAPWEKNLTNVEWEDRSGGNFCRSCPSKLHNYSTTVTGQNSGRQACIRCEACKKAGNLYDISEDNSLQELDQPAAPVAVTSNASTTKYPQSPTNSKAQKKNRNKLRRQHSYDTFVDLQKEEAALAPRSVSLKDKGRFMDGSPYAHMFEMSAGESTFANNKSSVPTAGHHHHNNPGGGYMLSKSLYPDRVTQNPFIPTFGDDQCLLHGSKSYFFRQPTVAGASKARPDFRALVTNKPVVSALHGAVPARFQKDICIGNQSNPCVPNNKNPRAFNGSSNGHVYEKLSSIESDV
method.notes: Cell-based calcium flux (FLIPR) assay on cloned human NR1/NR2B ion channels expressed in mammalian cells
conditions: standard assay, glutamate ~EC40, 10 μM glycine
Experimental: Effects of Test Articles on Cloned Human NR1/NR2B Ion Channels Expressed in Mammalian Cells NMDA receptors are ion channels that are highly permeable to Ca^2+ ions, rendering it possible to monitor NMDA receptor function using cell-based calcium flux assay. […] The time course of the changes in intracellular calcium is measured using a fluorescent dye and a FLIPR (Fluorometric Imaging Plate Reader) device. […]
pIC50: −log10 of the molar value.
metric: pIC50

compound="O=C(Cn1ncc2ncc(-c3ccc(F)c(OC(F)F)c3)nc21)N1CC(F)C1 [Example 37]" relation_qualifier== result_value=7.04
compound="CC1CN(C(=O)Cn2ncc3ncc(-c4ccc(F)c(OC(F)F)c4)nc32)C1 [Example 36]" relation_qualifier== result_value=6.60
compound="CC1CN(C(=O)Cn2ncc3ncc(-c4ccc(Cl)c(C(C)(F)F)c4)nc32)C1 [Example 34]" relation_qualifier== result_value=6.39
compound="O=C(Cn1ncc2ncc(-c3ccc(Cl)c(OC(F)F)c3)nc21)N1CCC1 [Example 29]" relation_qualifier== result_value=7.16
compound="COc1cncc(Cn2ncc3ncc(-c4ccc(F)c(C(F)F)c4)nc32)c1 [Example 44]" relation_qualifier== result_value=6.78
compound="CC(F)(F)c1cc(-c2cnc3cnn(CC(=O)N4CC(F)C4)c3n2)ccc1Cl [Example 35]" relation_qualifier== result_value=6.67
compound="Cc1c(F)ccc(-c2cnc3cnn(CC(=O)N(C)C)c3n2)c1F [Example 21]" relation_qualifier== result_value=7.47
compound="Cc1cc(Cn2ncc3ncc(-c4ccc(F)c(C(F)F)c4)nc32)on1 [Example 41]" relation_qualifier== result_value=6.47
compound="CN(C)C(=O)Cn1ncc2ncc(-c3cc(F)ccc3F)nc21 [Example 50]" relation_qualifier=< result_value=5.52
